Assay: Proxy for plastic degradation [UPLC/UHPLC]
Details: pH 9; 50 °C
Catalogue of proteins with associated Proxy for plastic degradation
Recorded endpoint: Proxy for plastic degradation (µM)

INSERT INTO measurements (protein, number) VALUES
  ('unnamed (protein) MQDNSDGRYRPEGRTFARGAANLFDDRLFEARTYVTGTDVAEFASATIFYPLTLSFDLPNGVVVMSPGYTGTPESYDWWGPMLASVGIITAIIETNTPEDNLEQRKNALIAGIELIKRENANSASPINNKVDESQIAIMGHSLGGGASLRAAEELEGDIKAVIPLTPYCCELGQSFEGDLKGVSTPTLIIAAADDTIAPPETHSRLLYDEINSSTNKVYLEFAEGAHGLPTNQGSEFQTQGTYVYAFLKANFTNDSKYSDFIGGDGEDSFSSYETN', 15.5),
  ('unnamed (protein) MTAAAVSSRYYEETGPHAVTVEQGGPDHTLYYPSDLGAGGTQHPVVIWGNGTGATPETYDEGLRHFASWGFVVAAANTTQAGSGKEMLAGARFLIEEDQRSGSVFYGKIDETRIGAAGHSQGGGGAIAAGADPIVDTTIPIQPGPQGTVGDLHGPAFFISGQFDWIVPSSYVYSRYLGADHVPAVFGELRGADHFFPGDTRLRLIGATTAWFRFHLMADENARGIFFGPSSTCGICTDTEAWSKVDRNAKAQAIPG', 10.6),
  ('unnamed (protein) MRARIAALVAVPFLGAGAFAVSSVAAGDPPAVRTVPAAAAAPVDWSKTGPHQVKVDKADAHTIYRPSDLGSGGVKNPVVIWGNGTGATPAAYDGLLRHWASHGFVVAAANTKQANNGNAMRAGLDLVTKWNTTSSSPYYGKVDVSRVASSGHSQGGAGAMNAAVDTRVDAVLPIQPGPLAAPRKFKQPTFYMAGQNDRVVWPSWVRNFYNKSGHLPAVFGVVRGATHVAPAGDGGAFRGPTTAWLSFTLRGDASARAQFAGASCGYCGASSPFSNWLRNTRFTSQNG', 15.7),
  ('unnamed (protein) MRIRQALVAFCAAIAMVVAGPSYASALDSPYQRGPDPTEASVKAIAGPFAVDQVKATGHTGFGSGTIFYPKDEKGTFGTIAVSPGFISPEGLVHWYAKTLASHGFVVMAMGTFTVADPPPSRGDQLRAALDYMKTKSPVKDKVDPTRLGLSGHSMGGGGTLDAASKMPDLKAAVPLAPWYLTGGPVIPKVKAPTLVVGANIDFVAPMAIFATPFYKALTSPNKALLTLPGDHMTPFLLANPTLTKFAVSWFKRFLDDDTRYDQFLCPNPASYEGTCPLT', 44.2),
  ('unnamed (protein) MNFPRASRLMQAAVLGGLMAVSAAATAQTNPYARGPNPTAASLEASAGPFTVRSFTVSRPSGYGAGTVYYPTNAGGTVGAIAIVPGYTARQSSINWWGPRLASHGFVVITIDTNSTLDQPSSRSSQQMAALRQVASLNGTSSSPIYGKVDTARMGVMGWSMGGGGSLISAANNPSLKAAAPQAPWNSSTNFSSVTVPTLIFACENDSIAPVNSHALPFYNSMSRNAKQFLEINGGSHSCANSGNSNQALIGKKGVAWMKRFMDNDTRYSTFACQNPNSTRVSDFRTANCS', 46.9),
  ('unnamed (protein) MNAPLFKLAALTLGLSLASVVLANNPGGGGGTAPDTGTGFPGVSNFSASGSFATTSGSAGASCTVFRPSTLGANNRKHPIIVWGNGTTASPNTYASLLQHWASHGFVVIAANTSNAGTGQEMLGCVDYLTTQNNRSTGTYAGKLDLNRIGAAGHSQGGGGTIMAGQDYRIKVTAPFQPYTIGLGHNSSSQSNQNGPMFLMTGSIDTIASPTLNALPVYTRANVPVFWGELSGASHFEPVGNAGDFRGPATAWFRYHLMDDASAEDTFYGSNCDLCTDRDWDVRRKGIN', 9.57),
  ('unnamed (protein) MSHRFRLAAAVCVAAAILVPATPAAAADPWDAPGPYATAVQIGAVNTLYYPRDIASSPRRHPVIVWGNGTGAAPLVYRDLLLYWASHGFIVSAANTPASNLGISMRLGIDALAAADADPGSIFRGKVDLAHIGASGHSQGGAAAIVVGADPRIDAILPIQPGPLADIDDVHVPALLLAGQHDSIVFPFLVKAFYNDATHIPAIYAEVRGADHFTVVGDPGPFAAPTTAWFRFQLMGDTAARAEFYGPSCGICTDTRTWSDVRRNALVP', 14.2),
  ('unnamed (protein) MGGGGEDNVFAEPGDFDVVTEPGGRDCTIFRPEQLGDDHAVVIWGNGTGASPNTYAGLLRHYASHGFVVVAANTSNAGTGEDMLNCLDFLEGSQLASSVDFSKVGATGHSQGGGGAIMAGVDPRIATTAPIEGFTLGLGHDRDSHDQQNGPMLILSGSADRLVNPRTNHAPLFDATNVPAFWAIAQGAGHFEPVGDGGDFRGISTAWFLFQLEDDPEATTHFVGDDCFVCEDPGFDVEGVKEID', 15.8),
  ('unnamed (protein) MRVLAMTLALVASTLATPTALAAPPDYGLPGSYPVAYSDVTAVAGGRSVPARVHYPATTSGTNQPVATGRFPVIAFGHGFFQATSKYTSTSTHLASWGFVVVVPTTQGGLSPSHGAFADDLNTGLTWLVAQDGTTGSRFRDHITTTALGVSGHSMGGGAAVLAAARNPKIKAVSTYAAAETNPSAKAAAATLAAPAQFLAGSQDTITPVGDHQRPMFTAKPPARQLRTITGGFHCGFMDSSGLFCDNGSITRAAQLTASKRVMTSWFRHYLSGDTAARDLVWGQPARTDPAVVFEGTE', 16.6);
